- System: NCI-H23 lung
- experiment_summary: NCI-60 one-dose screen, 48 h (100 = growth as untreated, 0 = no growth, -100 = all killed)
- test_settings: 10 µM unless noted
- Method: Growth inhibition of the NCI-H23 human Non-Small Cell Lung tumor cell line is measured as a screen for anti-cancer activity. Cells are grown in 96 well plates and exposed to the test compound for 48 hours. Compounds are tested at a single concentration, which is 10^-5 M for most compounds. The reported endpoint is percent growth (GI% or GIPRCNT), where numbers from 0 - 100% represent growth inhibition, and numbers from -100% - 0 represent cell death. […]
Compounds without any hit were thinned out: in the full panel of roughly 83,000, 20% have a hit.
measured_metric: growth (%)
One number for each entry, in %.

Below are worked cases with known answers.
compound: Oc1ccc(CSc2nnc(-c3ccccc3)o2)c2cccnc12
growth / %: 27.8
//
compound: Fc1ccccc1/C=C(/C1=NCCN1)n1cnc2ccccc21
growth / %: 96
//
compound: C#C[C@]1(O)CC[C@H]2[C@@H]3CC=C4c5sc(-c6cccc(F)c6)nc5CC[C@]4(C)[C@H]3CC[C@@]21C
growth / %: 84.2

Quick one: give me growth for each item below, same order please.
1. Cn1c(SC(C(=O)Nc2ccc(F)cc2)c2ccccc2)nc2ccccc2c1=O (stereo not given)
2. C=C1C(=O)O[C@@H]2C[C@@H](C)/C=C\C(=O)[C@](C)(OC(C)=O)C[C@H](OC(=O)/C(C)=C\C)[C@@H]12

1. 103
2. -13.9

----------
Task for the reader: assign each of the following compounds its reported growth.
- System: HT29 colon
- experiment_summary: NCI-60 one-dose screen, 48 h (100 = growth as untreated, 0 = no growth, -100 = all killed)
- test_settings: 10 µM unless noted
Compounds without any hit were thinned out: in the full panel of roughly 83,000, 20% have a hit.
Give bare numbers, in %.

compound: C=C1C(=O)O[C@@H]2/C=C(/C)C3=CC(=O)[C@@](C)(C[C@H](OC(=O)/C(C)=C\C)[C@@H]12)O3
measured_metric: growth
reported_measurement: -38.7
--
compound: O=C(O)CNS(=O)(=O)c1ccc(Oc2ccc(S(=O)(=O)NCC(=O)O)cc2)cc1
measured_metric: growth
reported_measurement: 99.3
--
compound: COc1ccc(-c2oc3cc(O)cc(O)c3c(=O)c2OC)cc1O
measured_metric: growth
reported_measurement: 57

Quick one: give me growth for each item below, same order please.
1. CN(c1ccc(Br)cc1)S(=O)(=O)c1ccc(-c2cnc(C3CC3)o2)cc1
2. COc1ccc(-c2nnc(SCc3ccc(O)c4ncccc34)o2)cc1
3. O=c1c2c(O)cccc2oc2c3c(cc(O)c12)O[C@H]1OC=C[C@@H]31
4. CCC(CC)n1c(=O)c(SC2=NC3C(NN2)N(CC)C(=O)N3CC)c(C(=O)O)c2ccccc21 (centres undefined)
5. O=C(Nc1ccc(Cl)cc1)Nc1nc2ccc([N+](=O)[O-])cc2s1
6. O=C(CCCCCCN1CC(=O)N2[C@@H](c3cccc(Br)c3)c3[nH]c4ccccc4c3C[C@H]2C1=O)NO

11
89.1
88.9
2.44
1.88
14.8

----------
- Test system: COLO 205 colon
- experiment_summary: NCI-60 one-dose screen, 48 h (100 = growth as untreated, 0 = no growth, -100 = all killed)
- test_settings: 10 µM unless noted
- Method: Cells are grown in 96 well plates and exposed to the test compound for 48 hours. Compounds are tested at a single concentration, which is 10^-5 M for most compounds. The reported endpoint is percent growth (GI% or GIPRCNT), where numbers from 0 - 100% represent growth inhibition, and numbers from -100% - 0 represent cell death. For example, a value of 40 represents 60% growth inhibition. A value of 0 means no net growth occurred over the course of the experiment. […]
About 83,000 compounds went through this panel and 20% of them were active in at least one assay; those are over-represented in the sample as a whole.
measured_metric: growth (%)
One number for each entry, in %.

Below are worked cases with known answers.
compound: CC(=O)Nc1nc2c(s1)C1=CC[C@H]3[C@@H]4CC[C@H](C(C)=O)[C@@]4(C)CC[C@@H]3[C@@]1(C)CC2
growth (%): 57
//
compound: CCCCCCNC(=O)Oc1ccc(/C(=C(/C)c2ccc(OC)cc2)c2ccc(OCCN3CCCC3)cc2)cc1
growth (%): 76.2
//
compound: O=C(NNc1nc2cc(F)ccc2n2cncc12)c1cnccn1
growth (%): 19.5
//
compound: C#CCOc1ccccc1C(Nc1ccccc1)c1nnnn1C1CCCCC1 (stereo not given)
growth (%): 112

For the next question, use this compound.
Query Nc1nc(-c2cccc([N+](=O)[O-])c2)c(N=Nc2cccc(Cl)c2)s1 yields growth of 48.1
